read-out: CYP2E1 (gene 1571); assay: LTEA_HepaRG_CYP2E1: Life Technologies and Expression Analysis (LTEA) Assay for CYP2E1 using HepaRG (AID 2283485); settings: mRNA level, 48 h; actives raise or lower the signal
Activity calls are given as the source filed them. Rule for the calls: active = hit-call score of the fitted dose curve at least 0.9, where 1 is the maximum; inactive = score below 0.9.

{"substanceSmiles": "O=C(O)C1(c2ccc3c(c2)OC[C@H](Cc2ccc(-c4ccccc4)cc2)[C@H]3O)CCCC1", "AC50": "84.5 µM (active)"}
{"substanceSmiles": "CCCCCCCCCCCCc1cccc(S(=O)(=O)O)c1", "AC50": "inactive"}
{"substanceSmiles": "N#Cc1cccnc1", "AC50": "inactive"}
{"substanceSmiles": "CN(C)C(=S)S", "AC50": "inactive"}
{"substanceSmiles": "CC(C)(C)c1ccccc1O", "AC50": "15.1 µM (active)"}
{"substanceSmiles": "Cc1cc(C)cc(C)c1", "AC50": "inactive"}
{"substanceSmiles": "CC(C)O.CC(C)O.OCCN(CCO)CCO.OCCN(CCO)CCO.[Ti]", "AC50": "50 µM (active)"}
{"substanceSmiles": "Oc1cc(Cl)c(Cl)cc1Cl", "AC50": "inactive"}
{"substanceSmiles": "OCCN(CCO)CCO", "AC50": "inactive"}
{"substanceSmiles": "O=C(N[C@H]1CN2CCC1CC2)c1ccc2c(c1)OCCO2", "AC50": "inactive"}
